Item-by-item account of viability, T/C
Tested on: 349418-098-R-PDC complex spheroid viability
Assay: Anticancer human tumor 349418-098-R-PDC patient-derived lung adenocarcinoma cell line growth inhibition [RAS]
Conditions: second compound 1 µM; first compound 0.316 µM; stronger effect = lower value

Solved cases (4 shown):
1) C[C@@H](NC(=O)c1ncnc(N)c1Cl)c1ncc(C(=O)Nc2cc(C(F)(F)F)c(Cl)cn2)s1 + C=CC(=O)N1CCN(c2nc(OCC3CCCN3C)nc3c(F)c(-c4nc(N)cc(C)c4C(F)(F)F)c(Cl)cc23)C(C)C1    84.2%
2) NC1c2ccccc2OC12CCN(c1cnc3c(N4CCCc5ncccc54)n[nH]c3n1)CC2 (stereo not given) + C#Cc1c(F)ccc2cc(O)cc(-c3ncc4c(N5CC6CCC(C5)N6)nc(OCC56CCCN5CC(F)C6)nc4c3F)c12    87.5%
3) CC(=O)OC12COC1CC(O)C1(C)C(=O)C(O)C3=C(C)C(OC(=O)C(O)C(NC(=O)OC(C)(C)C)c4ccccc4)CC(O)(C(OC(=O)c4ccccc4)C21)C3(C)C (stereo not given) + C#Cc1c(F)ccc2cc(O)cc(-c3ncc4c(N5CC6CCC(C5)N6)nc(OCC56CCCN5CC(F)C6)nc4c3F)c12    21.4%
4) Nc1ccn(C2OC(CO)C(O)C2(F)F)c(=O)n1 (stereo not given) + C=CC(=O)N1CCN(c2nc(OCC3CCCN3C)nc3c(F)c(-c4nc(N)cc(C)c4C(F)(F)F)c(Cl)cc23)C(C)C1    7.44%

Read the next record carefully.
Item Nc1ccn(C2OC(CO)C(O)C2(F)F)c(=O)n1 (stereo not given) + C#Cc1c(F)ccc2cc(O)cc(-c3ncc4c(N5CC6CCC(C5)N6)nc(OCC56CCCN5CC(F)C6)nc4c3F)c12 has what recorded viability, T/C?
6.05%

====

Test system: 349418-098-R-PDC complex spheroid viability
Assay: Anticancer human tumor 349418-098-R-PDC cell line growth inhibition [RAS]; active means viability on the fitted dose curve at most 10% of control; inactive means the rest;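 also: spheroids exposed to compound for seven days before viability readout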
Details: second compound 1 µM; first compound 0.316 µM
Choose one outcome from this list and give only that: label 1 for active, label 0 for inactive

Below are worked cases with known answers.
1) CC1(O)CCCC1n1c(=O)c(C(F)F)cc2cnc(NC3CCN(S(C)(=O)=O)CC3)nc21 (centres undefined) + C=CC(=O)N1CCN(c2nc(OCC3CCCN3C)nc3c(F)c(-c4nc(N)cc(C)c4C(F)(F)F)c(Cl)cc23)C(C)C1    label 0
2) C=CC(=O)Nc1cc(Nc2nccc(-c3cn(C)c4ccccc34)n2)c(OC)cc1N(C)CCN(C)C + C=CC(=O)N1CCN(c2nc(OCC3CCCN3C)nc3c(F)c(-c4nc(N)cc(C)c4C(F)(F)F)c(Cl)cc23)C(C)C1    label 0

For O=C(c1ccc(F)c(F)c1Nc1ccc(I)cc1F)N1CC(O)([C@@H]2CCCCN2)C1 + C#Cc1c(F)ccc2cc(O)cc(-c3ncc4c(N5CC6CCC(C5)N6)nc(OCC56CCCN5CC(F)C6)nc4c3F)c12 , what call appears in the results of this test?
label 1

Assay outcome for CC(=O)OC12COC1CC(O)C1(C)C(=O)C(O)C3=C(C)C(OC(=O)C(O)C(NC(=O)OC(C)(C)C)c4ccccc4)CC(O)(C(OC(=O)c4ccccc4)C21)C3(C)C (centres undefined) + C=CC(=O)N1CCN(c2nc(OCC3CCCN3C)nc3c(F)c(-c4nc(N)cc(C)c4C(F)(F)F)c(Cl)cc23)C(C)C1 : what was it?
label 0

Assay outcome for CCC(CC)c1cc(NC2CCC(N)C2)n2nccc2n1 (centres undefined) + C=CC(=O)N1CCN(c2nc(OCC3CCCN3C)nc3c(F)c(-c4nc(N)cc(C)c4C(F)(F)F)c(Cl)cc23)C(C)C1 : what was it?
label 0
